assay: Therapeutic index, ratio of TC50 for human CEM-SS cells to EC50 for HIV1 RF infected in human CEM-SS cells; type: cell-based; details: read-out: TI
Label met for high-side selectivity ratio (at or above 6000) and not met for low-side selectivity ratio (below it).

Evaluate `Cc1cc(C)cc(Sc2c(C(C)C)c(=O)[nH]c(=O)n2CC2CCCC2)c1` : selectivity ratio at minimum 6000?
not met

Entry `Cc1cc(C)cc(C(=O)c2c(C(C)C)c(=O)[nH]c(=O)n2CC2=CCCC2)c1` : is its selectivity ratio no less than 6000?
met

Reported selectivity ratio at or above 6000? `Cc1cc(C)cc(C(=O)c2c(C(C)C)c(=O)[nH]c(=O)n2CCC2=CCCC2)c1`
not met

Is the recorded value of selectivity ratio equal to or greater than 6000 for this molecule? `CCc1c(C(=O)c2cc(C)cc(C)c2)n(CCC2CCCC2)c(=O)[nH]c1=O`
not met

---

system: Human immunodeficiency virus 2; assay: Antiviral activity against HIV2 ROD infected in human CEM-SS cells assessed as inhibition of virus-induced cytopathic effect by XTT assay; assay type: functional, organism-based, ISOLATE ROD; conditions: Human immunodeficiency virus 2, ISOLATE ROD, CEM-SS; read-out: EC50
ENDPOINT: pEC50
FYI, pEC50 means -log10 of a concentration in mol per litre.

// recorded pEC50 for `Cc1cc(C)cc(Sc2c(C(C)C)c(=O)[nH]c(=O)n2CC2CCC2)c1` : 5.80

For `CC(C)c1c(C(=O)c2ccccc2)n(CC2CC=CC2)c(=O)[nH]c1=O` the compound record lists pEC50 as 4.74

Query `Cc1cc(C)cc(C(=O)c2cc(=O)[nH]c(=O)n2CC2CC=CC2)c1` yields pEC50 of 4.51

get_value(item= `Cc1cc(C)cc(C(=O)c2c(C(C)C)c(=O)[nH]c(=O)n2Cc2ccccc2)c1` , readout=pEC50) returns 7.00

get_value(item= `CCc1c(Oc2cc(C)cc(C)c2)n(CC2=CCCC2)c(=O)[nH]c1=O` , readout=pEC50) returns 5.89

The compound listed as `Cc1cc(C)cc(Oc2c(C(C)C)c(=O)[nH]c(=O)n2CC2CCC2)c1` has a reported pEC50 of 5.89

Field pEC50 (entry `CCc1c(C(=O)c2cc(C)cc(C)c2)n(CCC2=CCCC2)c(=O)[nH]c1=O` ) reads 4.73

Lab note: CCc1c(Oc2cc(C)cc(C)c2)n(CCC2C=CCC2)c(=O)[nH]c1=O (configuration not stated) gave pEC50 of 6.15

Reported pEC50 for `Cc1cc(C)cc(Sc2c(C(C)C)c(=O)[nH]c(=O)n2CC2CC=CC2)c1` was 4.82

Briefly, pEC50 measured for `CCc1c(Oc2cc(C)cc(C)c2)n(CC2CCCC2)c(=O)[nH]c1=O` : 5.54

For record `CCc1c(Sc2cc(C)cc(C)c2)n(Cc2ccccc2)c(=O)[nH]c1=O` the listed pEC50 is 6.40

Measured pEC50 of `CCc1c(C(=O)c2cc(C)cc(C)c2)n(CCC2CC=CC2)c(=O)[nH]c1=O` : 5.82

response.value for `Cc1cc(C)cc(Sc2c(C(C)C)c(=O)[nH]c(=O)n2CC2CCCCC2)c1` (field: pEC50) = 5.26

In plain terms, `CCc1c(Sc2cc(C)cc(C)c2)n(CC2CCC2)c(=O)[nH]c1=O` has a documented pEC50 of 5.77

For this compound ( `CCc1c(Oc2ccccc2)n(CC2CC=CC2)c(=O)[nH]c1=O` ), measured pEC50 is 4.49

// recorded pEC50 for `CCc1c(C(=O)c2cc(C)cc(C)c2)n(CC2CC=CC2)c(=O)[nH]c1=O` : 4.80

The reported pEC50 of the compound `Cc1cc(C)cc(C(=O)c2c(C(C)C)c(=O)[nH]c(=O)n2CCC2CC=CC2)c1` was 6.22

Record summary for `CCc1c(Oc2cc(C)cc(C)c2)n(Cc2ccccc2)c(=O)[nH]c1=O` : reported pEC50 = 6.52

// sample `Cc1cc(C)cc(Oc2c(C(C)C)c(=O)[nH]c(=O)n2Cc2ccccc2)c1` , its pEC50 was 7.00

Data point: CCc1c(C(=O)c2cc(C)cc(C)c2)n(CCC2C=CCC2)c(=O)[nH]c1=O (configuration not stated) ; pEC50 = 6.70

# pEC50 (compound: `Cc1cc(C)cc(Oc2c(C(C)C)c(=O)[nH]c(=O)n2CC2CC=CC2)c1` ) is 4.74

Summary for this compound, `CC(C)c1c(Oc2ccccc2)n(CC2CC=CC2)c(=O)[nH]c1=O` : pEC50 is 4.51
